B1: VH:VL chains; a variant is named by its letters at X, in order (parent)
chain 1: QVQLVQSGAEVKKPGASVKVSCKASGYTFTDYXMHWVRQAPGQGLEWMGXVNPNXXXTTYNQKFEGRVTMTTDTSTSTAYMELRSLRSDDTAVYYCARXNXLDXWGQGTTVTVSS
chain 2: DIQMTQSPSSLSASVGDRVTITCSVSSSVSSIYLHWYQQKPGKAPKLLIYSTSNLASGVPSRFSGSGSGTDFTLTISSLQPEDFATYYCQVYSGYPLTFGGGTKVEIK

Variants of: B1
Test: yeast display scFab, FACS + sequencing
readoutKind: non-specific binding call

variantAnnotation	non-specific binding call
VEKGGDAA	no binding
FGRRTYGD	binds
YRRRGSAS	binds
YKGEDDVY	no binding

// recorded non-specific binding call for FAEGDDVY : no binding

// recorded non-specific binding call for VAARGFGS : no binding

// recorded non-specific binding call for YRGASSGF : binds

// recorded non-specific binding call for SKERGDLV : no binding

// recorded non-specific binding call for FRRGGSAA : binds

// recorded non-specific binding call for SREAAAVY : no binding

// recorded non-specific binding call for FTRRSSLF chain 1 V111I : binds

// recorded non-specific binding call for YRGAGAWA : binds

// recorded non-specific binding call for DRERGDGY : no binding

// recorded non-specific binding call for FRGKGASD : binds

// recorded non-specific binding call for STEGGSVY : no binding

// recorded non-specific binding call for ARGRDAWV : binds

// recorded non-specific binding call for FRTRDALD : binds

// recorded non-specific binding call for YKGKDSVD : no binding

// recorded non-specific binding call for FRTGDSVD : no binding

// recorded non-specific binding call for YRGKDSVD : binds

// recorded non-specific binding call for SKTKSDVD : no binding

// recorded non-specific binding call for DRGRGDWV : no binding

// recorded non-specific binding call for STGRAALA : no binding
